Consider the following compounds; for each one, report its IC50.
# testTarget: human PCSK9 / human LDLR EGFa domain interaction (Homo sapiens (Human), UniProt Q8NBP7)
# Sequence (Q8NBP7 153-692): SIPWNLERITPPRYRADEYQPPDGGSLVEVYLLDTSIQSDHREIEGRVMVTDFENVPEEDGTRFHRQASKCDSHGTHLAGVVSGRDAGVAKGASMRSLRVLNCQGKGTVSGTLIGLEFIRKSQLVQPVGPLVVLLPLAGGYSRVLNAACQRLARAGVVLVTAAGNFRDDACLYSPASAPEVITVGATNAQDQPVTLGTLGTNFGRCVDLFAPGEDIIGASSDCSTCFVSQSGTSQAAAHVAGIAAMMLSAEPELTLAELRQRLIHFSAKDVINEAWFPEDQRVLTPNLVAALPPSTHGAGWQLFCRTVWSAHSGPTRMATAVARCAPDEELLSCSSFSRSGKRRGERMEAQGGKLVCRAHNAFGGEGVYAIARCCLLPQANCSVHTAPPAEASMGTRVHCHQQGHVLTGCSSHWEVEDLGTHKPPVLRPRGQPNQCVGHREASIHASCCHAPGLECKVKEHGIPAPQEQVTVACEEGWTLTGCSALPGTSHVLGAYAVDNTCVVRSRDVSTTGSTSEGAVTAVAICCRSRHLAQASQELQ
# Sequence (Q8NBP7 31-152 partner): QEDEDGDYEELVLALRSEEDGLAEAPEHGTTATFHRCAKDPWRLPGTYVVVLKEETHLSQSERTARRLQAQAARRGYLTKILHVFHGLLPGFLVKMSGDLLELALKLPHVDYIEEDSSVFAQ
# experimentNotes: TR-FRET assay of inhibition of the PCSK9-LDLR protein-protein interaction
# Type: binding
# conditionSummary: TR-FRET, 20 nM human PCSK9, 20 nM human LDLR EGFa domain, 2 hours room temperature; read-out: IC50
Starred links: 1 amine or outer side, 2 acyl side, 3 side chain; linkers in the order of their positions; H or OH if unused. Positions of bridges follow the written chain, without caps; N, C: chain ends. Non-standard residues stand in square brackets, D forms with d. Residues, ends and D or L forms follow the SMILES beside them. Trp(5-F) = N[C@@H](Cc1c[nH]c2ccc(F)cc12)C(=O)O; X8 = Clc1cc(C[*:1])cc(C[*:2])c1; αMeP = C[C@@]1(C(=O)O)CCCN1; Mpa = O=C(O)CCS

IC50 measured on NCCCC[C@@H]1NC(=O)CCCCn2cc(nn2)CCC[C@@H](C(N)=O)NC(=O)[C@@H]2CCCN2C(=O)[C@H](Cc2ccc(O)cc2)NC(=O)[C@H](Cc2c[nH]cn2)NC(=O)[C@H](CC(=O)O)NC(=O)[C@H](Cc2c[nH]c3ccc(F)cc23)NC(=O)[C@H](Cc2c[nH]c3ccc(F)cc23)NC(=O)CNC1=O [Compound 153] = 1000 to 12100 nM

IC50 measured on C[C@@]12CCCN1C(=O)[C@H](Cc1ccc(O)cc1)NC(=O)[C@H](Cc1c[nH]cn1)NC(=O)[C@H](CC(=O)O)NC(=O)[C@H](Cc1c[nH]c3ccc(F)cc13)NC(=O)[C@H](Cc1c[nH]c3ccc(F)cc13)NC(=O)CNC(=O)[C@H](CCCCN)NC(=O)CCSCc1cc(Cl)cc(c1)CSC[C@@H](C(N)=O)NC2=O [Compound 358] ([Mpa]KG[Trp(5-F)][Trp(5-F)]DHY[αMeP]C-NH2; linker 1-10 via X8) = 0.1 to 100 nM
